# Test system: PANC-01 human pancreatic cancer cell line
# test.description: Cell growth assay (SRB) in PANC-01
# Type: cell-based
# measurement.setup: acetylated 4-N-acyl derivatives (Table 7)
# Protocol: Biological activities of the Gemcitabine derivative (which may be referred to as analogues) described above were evaluated with two assays: • 1. Cell growth assay using the SRB assay in cell lines A549/WT, SW1573/WT, PANC-01 and BXPC-3. • 2. […] From the IC50 of each compound in the presence of dipyridamole, by dividing it with the IC50 of each compound in the absence of dipyridamole, the present inventors calculated a ratio that compared the efficacy of the analogous presence of dipyridamole. […]
Ratio of IC50 in the presence of, compared to in the absence of, dipyridamole under 2 gets 1 (yes), anything at or over 2 gets 0 (no).

Please check: Ratio of IC50 in the presence of, compared to in the absence of, dipyridamole for CC(=O)OCC1OC(n2ccc(NC(=O)OCCCl)nc2=O)C(F)(F)C1OC(C)=O (centres unmarked) , strictly under 2 or not?
0 (no)

Consider the molecule CC(=O)OCC1OC(n2ccc(NC(=O)OCC(C)c3ccccc3[N+](=O)[O-])nc2=O)C(F)(F)C1OC(C)=O (centres unmarked) . Is its Ratio of IC50 in the presence of, compared to in the absence of, dipyridamole strictly less than 2?
1 (yes)

Please indicate whether the reported Ratio of IC50 in the presence of, compared to in the absence of, dipyridamole of CC(=O)OCC1OC(n2ccc(NC(=O)OCC(C)C)nc2=O)C(F)(F)C1OC(C)=O (centres unmarked) is strictly below 2.
1 (yes)

Is Ratio of IC50 in the presence of, compared to in the absence of, dipyridamole of CCCCOC(=O)Nc1ccn(C2OC(COC(C)=O)C(OC(C)=O)C2(F)F)c(=O)n1 (centres unmarked) strictly below 2?
1 (yes)

Here's an entry: C#CCOC(=O)Nc1ccn(C2OC(COC(C)=O)C(OC(C)=O)C2(F)F)c(=O)n1 (centres unmarked) . Is its Ratio of IC50 in the presence of, compared to in the absence of, dipyridamole below 2?
0 (no)

Please state whether Ratio of IC50 in the presence of, compared to in the absence of, dipyridamole is below 2 for CCOC(=O)Nc1ccn(C2OC(COC(C)=O)C(OC(C)=O)C2(F)F)c(=O)n1 (centres unmarked)
1 (yes)

Please let me know if CC(=O)OCC1OC(n2ccc(NC(=O)OCCl)nc2=O)C(F)(F)C1OC(C)=O (centres unmarked) shows Ratio of IC50 in the presence of, compared to in the absence of, dipyridamole below 2.
1 (yes)

Dear reviewer, please state whether COc1cc(COC(=O)Nc2ccn(C3OC(COC(C)=O)C(OC(C)=O)C3(F)F)c(=O)n2)c([N+](=O)[O-])cc1OC (centres unmarked) has Ratio of IC50 in the presence of, compared to in the absence of, dipyridamole strictly beneath 2.
0 (no)

Further cases:
Find out if reported Ratio of IC50 in the presence of, compared to in the absence of, dipyridamole for CC(=O)Nc1ccn(C2OC(COC(C)=O)C(OC(C)=O)C2(F)F)c(=O)n1 (centres unmarked) is less than 2
1 (yes)

Does Nc1ccn([C@@H]2O[C@H](CO)[C@@H](O)C2(F)F)c(=O)n1 [Gemcitabine, 2′,2′-difluoro-2′-deoxycytidine, reference compound] have Ratio of IC50 in the presence of, compared to in the absence of, dipyridamole strictly under 2?
0 (no)

Bench note: check whether CC(=O)OCC1OC(n2ccc(N3CCOC3=O)nc2=O)C(F)(F)C1OC(C)=O (centres unmarked) shows Ratio of IC50 in the presence of, compared to in the absence of, dipyridamole below 2
1 (yes)
